The reported numbers originate from patent US11198680B2.

system_name: ROCK1 (Homo sapiens (Human), UniProt Q13464)
Sequence (Q13464 2-1354 limits assumed): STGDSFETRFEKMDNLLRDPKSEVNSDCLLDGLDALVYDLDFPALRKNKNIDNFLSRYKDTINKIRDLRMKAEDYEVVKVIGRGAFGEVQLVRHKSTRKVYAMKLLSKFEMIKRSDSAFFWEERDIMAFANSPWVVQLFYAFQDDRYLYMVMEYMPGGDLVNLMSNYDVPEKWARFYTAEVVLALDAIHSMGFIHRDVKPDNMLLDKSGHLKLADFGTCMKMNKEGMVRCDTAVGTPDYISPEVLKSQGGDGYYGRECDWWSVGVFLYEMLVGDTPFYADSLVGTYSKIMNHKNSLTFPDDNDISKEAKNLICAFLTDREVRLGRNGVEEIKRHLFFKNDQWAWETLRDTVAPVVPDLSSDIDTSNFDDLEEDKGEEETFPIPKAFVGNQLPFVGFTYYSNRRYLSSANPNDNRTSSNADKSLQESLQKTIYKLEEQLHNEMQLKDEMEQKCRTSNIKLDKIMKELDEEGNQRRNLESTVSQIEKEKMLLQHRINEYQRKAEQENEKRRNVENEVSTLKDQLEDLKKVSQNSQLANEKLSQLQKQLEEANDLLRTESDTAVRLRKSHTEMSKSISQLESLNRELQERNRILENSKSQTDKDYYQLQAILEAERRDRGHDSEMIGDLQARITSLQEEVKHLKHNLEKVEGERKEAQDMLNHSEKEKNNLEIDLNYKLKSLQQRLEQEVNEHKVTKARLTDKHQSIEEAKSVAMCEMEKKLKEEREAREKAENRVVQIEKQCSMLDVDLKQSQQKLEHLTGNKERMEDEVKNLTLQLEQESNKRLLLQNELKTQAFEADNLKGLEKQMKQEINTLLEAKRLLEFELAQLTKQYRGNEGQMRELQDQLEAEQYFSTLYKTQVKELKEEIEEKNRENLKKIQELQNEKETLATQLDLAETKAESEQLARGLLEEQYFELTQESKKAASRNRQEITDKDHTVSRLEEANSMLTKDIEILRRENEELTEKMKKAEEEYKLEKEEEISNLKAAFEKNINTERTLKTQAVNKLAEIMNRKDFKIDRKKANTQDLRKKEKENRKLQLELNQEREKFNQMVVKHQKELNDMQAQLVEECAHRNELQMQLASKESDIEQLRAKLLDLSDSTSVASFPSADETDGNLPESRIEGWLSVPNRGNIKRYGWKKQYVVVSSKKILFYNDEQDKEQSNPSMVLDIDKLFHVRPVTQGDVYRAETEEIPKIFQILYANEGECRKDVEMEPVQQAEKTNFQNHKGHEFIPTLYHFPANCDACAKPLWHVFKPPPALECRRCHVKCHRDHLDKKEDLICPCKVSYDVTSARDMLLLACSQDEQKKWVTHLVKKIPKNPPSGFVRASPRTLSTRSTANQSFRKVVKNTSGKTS
experimental_details: Direct filter-binding radiometric kinase assay, IC50 determination
Assay type: biochemical
assay_setup: Compound IC50 ROCK1 10 μM ATP, CRO Reaction Biology, 10 μM ATP
quantity_measured: pIC50
By convention, pIC50 is the negative base-10 log of a molar concentration.

Q) What value of measured pIC50 is listed for C[C@@H](N)C1CCN(S(=O)(=O)c2cccc3cnccc23)CC1 [BA-1049 (R)] ?
A) 6.16

----------
system_name: ROCK1 (Homo sapiens (Human))
assay_setup: read-out: ROCK1 KD; average of duplicate determinations; Table 5; listed as Racemic BA-1049: Lot 2
quantity_measured: Kd (µM)
State the answer as a number, implicitly in µM.

Q) What value of measured Kd is listed for CC(N)C1CCN(S(=O)(=O)c2cccc3cnccc23)CC1 (racemic) ?
A) 0.089

----------
system_name: ROCK2 (Homo sapiens (Human), UniProt O75116)
experimental_details: Direct filter-binding radiometric kinase assay, IC50 determination
Type: biochemical
assay_setup: Compound IC50 ROCK2 15 μM ATP, Km ATP 15 μM; Table 3
quantity_measured: pIC50
By convention, pIC50 is the negative base-10 log of a molar concentration.

Q) Enter reported pIC50 observed with ROCK2 (Homo sapiens (Human), UniProt O75116) for C[C@@H](N)C1CCN(S(=O)(=O)c2cccc3cnccc23)CC1 [BA-1049 (R)]
A) 6.47

----------
system_name: ROCK2 (Homo sapiens (Human), UniProt O75116)
assay_setup: read-out: ROCK2 KD; average of duplicate determinations; Table 5
quantity_measured: Kd (µM)
State the answer as a number, implicitly in µM.

Q) What value of measured Kd is listed for C[C@H](N)C1CCN(S(=O)(=O)c2cccc3cnccc23)CC1 ?
A) 0.16
